target.under.test: T1, full-length human OX40 protein (human, UniProt P43489 29-277)
T1 construct: whole, on cells; also called hOX40; CD134
T1 sequence (looked up): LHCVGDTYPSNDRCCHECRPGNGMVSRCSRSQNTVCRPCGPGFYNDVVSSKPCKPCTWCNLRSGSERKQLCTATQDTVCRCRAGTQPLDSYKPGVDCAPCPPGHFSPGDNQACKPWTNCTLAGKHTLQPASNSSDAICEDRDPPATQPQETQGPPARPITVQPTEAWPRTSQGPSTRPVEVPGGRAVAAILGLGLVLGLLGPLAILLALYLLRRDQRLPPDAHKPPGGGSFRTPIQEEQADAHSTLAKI
assay.name: FACS on L929-hOX40 cells, PE anti-human FC secondary antibody
readout.type: Maximum mean fluorescence intensity value (MFI)
Kindly answer with a numeric value in MFI, unit omitted.

Problem: # lookup: Maximum mean fluorescence intensity value (MFI) of anti-human OX40 antibody BC3-7 (OX40 VHH-Fc) (Fc fusion, VHH fused through a linker to human IgG Fc, expressed in ExpiCHO, purified on Protein A; also called OX40 BC3-7; OX40 VHH-Fc antibody; not shown: linker encoded by the CMV-12GS-FC vector; human IgG FC fragment (hFC)) EVQLVESGGGLVQPGGSLRLSCAASGSIYDFDVMGWFRQAPGKGRELVAAINSFGDITYYPDSVEGRFTISRDNAKRMVYLQMNSLRAEDTAVYYCAADWHVLIQQVLGYWGQGTQVTVSS
Result: 327000

Problem: # lookup: Maximum mean fluorescence intensity value (MFI) of anti-human OX40 antibody BC3-4 (OX40 VHH-Fc) (Fc fusion, VHH fused through a linker to human IgG Fc, expressed in ExpiCHO, purified on Protein A; also called OX40 BC3-4; OX40 VHH-Fc antibody; not shown: linker encoded by the CMV-12GS-FC vector; human IgG FC fragment (hFC)) EVQLVESGGGLVQPGGSLRLSCAASGFIFSAYFMGWFRQAPGKGRELVAAINSNDDITYYPDSVEGRFTISRDNAKRMVYLQMNSLRAEDTAVYYCAAWLGAENYGYWGQGTQVTVSS
Result: 308000

Problem: # lookup: Maximum mean fluorescence intensity value (MFI) of anti-human OX40 antibody BC3-1 (OX40 VHH-Fc) (Fc fusion, VHH fused through a linker to human IgG Fc, expressed in ExpiCHO, purified on Protein A; also called OX40 BC3-1; OX40 VHH-Fc antibody; not shown: linker encoded by the CMV-12GS-FC vector; human IgG FC fragment (hFC)) EVQLVESGGGLVQPGGSLRLSCAASGSIFSVYVMGWFRQAPGKGRELVAAITPFDDNTYYPDSVEGRFTISRDNAKRMVYLQMNSLRAEDTAVYYCAADWEWPEYNYWGQGTQVTVSS
Result: 285000

Problem: # lookup: Maximum mean fluorescence intensity value (MFI) of anti-human OX40 antibody BC3-6 (OX40 VHH-Fc) (Fc fusion, VHH fused through a linker to human IgG Fc, expressed in ExpiCHO, purified on Protein A; also called OX40 BC3-6; OX40 VHH-Fc antibody; not shown: linker encoded by the CMV-12GS-FC vector; human IgG FC fragment (hFC)) EVQLVESGGGLVQPGGSLRLSCAASGSILDSNLMGWFRQAPGKGRELVASINSYDDNTYYPDSVEGRFTISRDNAKRMVYLQMNSLRAEDTAVYYCAAQVFVGWPYTDQMHDYWGQGTQVTVSS
Result: 198000
